Target: MyD88^TIR (Homo sapiens, UniProt Q99836)
Construct: MyD88 (residues 148–296); 6xHis; made in house; host or cells: E. coli BL21 (DE3)
Sequence (Q99836 148-296): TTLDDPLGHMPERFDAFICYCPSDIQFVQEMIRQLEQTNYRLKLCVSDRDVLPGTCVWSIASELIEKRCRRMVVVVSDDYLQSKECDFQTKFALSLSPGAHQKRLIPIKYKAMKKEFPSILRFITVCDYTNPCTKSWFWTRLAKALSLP
Assay: T‐Surf phage library (P8 and P3) selection against MyD88^TIR, four rounds, NGS read counts
Assay type: binding
Conditions: P8 library, 4R selection against MyD88, rank after grouping
PROPERTY: P8_MyD88 Rank (after)

IDDDHLTYLVRLLYSLHVT :: 669
DWVWVYLLPNLEGPEG :: 641
LGYHWIDWEYFVGIEDPIT :: 660
LEANDSLFWDRLIRMIE :: 635
AWVWEYLLPNLVGPAG :: 668
YAASPWWFDELLQIA :: 633
QDLGWFYERLVSLF :: 590
YASYDDNDYYWVTHVLLSR :: 638
DPQDMEWFYERLVSLIL :: 602
IQCRNATSPAALLIGR :: 651
WDYASNVELFWGRMNY :: 586

###

Target: MyD88^TIR (Homo sapiens, UniProt Q99836)
Construct: MyD88 (residues 148–296); 6xHis; made in house; host or cells: E. coli BL21 (DE3)
Assay: T‐Surf phage library (P8 and P3) selection against MyD88^TIR, four rounds, NGS read counts
Format: binding
Conditions: P3 library, selection against MyD88, rank by count before grouping
PROPERTY: P3_MyD88 Rank (before)

Record excerpt, results attached:
GEDTLYTFTGHLQATL :: 1830
SSFREGLCRLLELSKQ :: 3201
LKVESWRQALEKAGKLRYAM :: 2496
SRFREGLWRLLKLSKK :: 3278
NQWRNALTAAAHLTGW :: 3494
YTLLAICMMRCIVIV :: 1622
YTALTNSRLHNFRDND :: 1707
ARFKDMIINKWRTALKERLP :: 1964
NQWRKALTSAANLSGW :: 3528
KEVEVWRDALTKVVGL :: 3606

1. NELVRVWSSKANSRVG
2. DTKLKKGESIAPALMR
When their P3_MyD88 Rank (before) values are compared, which is larger, 1 or 2 ? Respond using the label that marks the chosen record.
1

###

Target: MAL^TIR (Homo sapiens, UniProt P58753)
Construct: MAL (residues 79–221); 6xHis; made in house; host or cells: E. coli BL21 (DE3)
Sequence (P58753 79-221): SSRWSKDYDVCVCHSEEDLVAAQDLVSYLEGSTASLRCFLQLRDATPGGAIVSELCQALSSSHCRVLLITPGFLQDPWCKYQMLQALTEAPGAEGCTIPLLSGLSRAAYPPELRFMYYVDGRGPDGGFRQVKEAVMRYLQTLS
Test: T‐Surf phage library (P8 and P3) selection against MAL^TIR, four rounds, NGS read counts
Assay type: binding
Conditions: P3 library, 4R selection against MAL, rank before grouping
PROPERTY: P3_MAL Rank (before)

Record excerpt, results attached:
RLLKWIETLHQFHSWV :: 2489
NQLRNALTASANLSGW :: 3325
VGWFLHTLCQLILQKG :: 1630
PSEIRKQTGSLPKAFA :: 2665

P. ESGKLASGAGKSGQT
Q. KRISEQLRPALNVRRP
R. WHFHLRLRMLALLQKM
Sort by P3_MAL Rank (before), descending. Return value: ordered labels per request.
Q, P, R
(Q: 3633, P: 2037, R: 1294)

###

Biological target: MyD88^TIR (Homo sapiens)
Construct: MyD88 (residues 148–296); 6xHis; made in house; host or cells: E. coli BL21 (DE3)
Assay: T‐Surf phage library (P8 and P3) selection against MyD88^TIR, four rounds, NGS read counts
Format: binding
Settings: P3 library, selection against MyD88 TIR; rank by count after grouping
PROPERTY: P3_MyD88 Rank (after)

VGKLKKGESFAPELLR :: 229
HLLKEFYKKQITAFKD :: 194
AVDKETDKIQTAEKC :: 242
YTALTNSGFHTFRDHE :: 227
LVAHELLKKMKIFATI :: 232
SSFREGLWRLLKLNKK :: 266
DHHLDLPRGKALKPEMLG :: 200
YTALTNIGIHTFRDND :: 223
DHHLDLPRGKEIKPELLG :: 245
SSFSEGLWRLLELRKK :: 191
YAFTGHLHRYLVQREPAGN :: 196
LKWGDPYFGANCVMR :: 269
PEKIMAAKMRLSITL :: 274
PSEVRNRPAAWRKRL :: 195
NGHESEIITVIVDTIV :: 221
SELRVEDDGSVIPLEM :: 201
AVAHEISNKMKIFATI :: 270
YLQWGYPCFWDRLRFA :: 251
YTALINSGFHTFRDNH :: 273
DHHLDLSRGKAIKPAILG :: 236
LKVENWRQALEQAGKL :: 203
KEVKGWRDALTTVASL :: 252
YYLDPSHLRKQSGESE :: 255
YTELTSSGFHTFRDND :: 198
NNLFNELVSKNIRTLM :: 237

###

Target: MyD88^TIR (Homo sapiens, UniProt Q99836)
Construct: MyD88 (residues 148–296); 6xHis; made in house; host or cells: E. coli BL21 (DE3)
Test: T‐Surf phage library (P8 and P3) selection against MyD88^TIR, four rounds, NGS read counts
Assay type: binding
Settings: P8_MyD88: rank by NGS read count after grouping
PROPERTY: Rank (after)

SQRADCSWEWQKMLYP :: 953
PHDLDWLYERPVRLIL :: 980
PQDLAWLYERPLSLIL :: 1015
YYDSRWALNELLEIL :: 903
WDCASNMEQFWDLPYY :: 920
CLLLSVFQTLFARRTE :: 877
DPQGLDWYYVRLVSLL :: 926
GLSWVRMNGGWACMM :: 922
DLYDILYLYGRHTIFV :: 881
DLVWDYLLPNLAGPAG :: 967
DPKDLQWFYERLVSLF :: 1027
YASRSWYLDELVHIPW :: 1022
PQEREWFYERLVSLIL :: 991
WDFASKMEQFLDRLYY :: 893
LGYHWIDWEYYVGIEN :: 992
SSRWALDELVQILHARELF :: 887
LGYHWMEWEYVVGIED :: 960
PQVVACFFQRLESMIL :: 871
LGYHWIDWEDFVGIEN :: 919
DPQDLDWFYERLASGI :: 882
YELAFSHCCLFEGHST :: 1007
LGYHRIDWEYCVGIED :: 1020
RGFHWTEWENFVDIED :: 968
YELDFSHFWLFVGQAP :: 1008
DPQDLECFYERRVSLF :: 916
GALDEVRKILYANETM :: 908
YLRADDNDYYWVTHVLLRHL :: 983
DWVWDYLLQILHARELF :: 995
LGYYWNDWEYVVGIEE :: 884
YLRADELLKILYANETM :: 870
PQDRERFFERLFSLF :: 998
YASYDDNYYYWVTHVLLRRL :: 969
WDFASNMEQLWERLYY :: 1014
NPADLDWFYERLVSLF :: 939
YLLLSVFQTICALRTE :: 963
LGYHWIDWEYFVGIK :: 874
YASNDDNDYYWVTHVRLRHL :: 1023
EPQDLDWLYERLVSLF :: 1009
DPQDLQWSYERLVSRI :: 938
DWVWVYRLPNLEGPAG :: 979
IDDDHLTYLVRLLYSLHVTE :: 895
HLIQQGIELHLHQLHL :: 941
YITWFEDFQQILLFWI :: 924
YASSWWALEELLQILHARELF :: 931
WFLFTVRSAIYAMSPA :: 921
VQWADPWFWDKLAYEK :: 1016
DPQGLVWLYERLFSQI :: 918
DWVWDYLLPNGRPSG :: 987
DPQDQDWVYERLVSLF :: 936
LGYHWIDWEYFEGIAD :: 928
VANIGLIGSILWALK :: 942
DPPDLDWCYQRLVNLP :: 1026

###

Target: MyD88^TIR (Homo sapiens)
Construct: MyD88 (residues 148–296); 6xHis; made in house; host or cells: E. coli BL21 (DE3)
Assay: T‐Surf phage library (P8 and P3) selection against MyD88^TIR, four rounds, NGS read counts
Format: binding
Settings: P8_MyD88: rank by NGS read count before grouping
PROPERTY: Rank (before)

Record excerpt, results attached:
TSTWALDELLRILY :: 3824
LGYHWVDWGCFVGIAD :: 3232
EPPGLDWVYERLVVLF :: 3199
SADYDDVGDRLIRMIE :: 3747
YASSWWALEELLQILHARELF :: 1850

A. LGYHWIDWEYFEGIAD
B. YASRSWYLDELVHIPW
Select one. Lower Rank (before): A or B Respond using the label that marks the chosen record.
B
(B: 1842, A: 3268)
